System: ATP;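 further: ATP exposure 15 min at 22 °C before imaging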
MEASUREMENT_PROTOCOL: switch fluorescence ratio, 500 uM ATP over buffer (Cy3 cluster intensity, sum of 5 cycles each) (fold (ratio)); higher = stronger signal-on switching upon ATP binding; sequences stand for … in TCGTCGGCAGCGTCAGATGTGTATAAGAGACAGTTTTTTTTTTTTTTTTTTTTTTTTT…TC
STUDY_CONDITIONS: aptamer strand: ATP DNA aptamer (quencher-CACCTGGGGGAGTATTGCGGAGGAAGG + anchor), 100 nM annealed; ATP concentration: 500 uM
// no strictly below 1 in switch fluorescence ratio; yes otherwise

>  <MONOMER_SEQUENCE>
GTCGTAGCGA

>  <CAT>
yes

$$$$
>  <MONOMER_SEQUENCE>
GTGAGGAGGG

>  <CAT>
no

$$$$
>  <MONOMER_SEQUENCE>
GGGGTAATAG

>  <CAT>
yes

$$$$
>  <MONOMER_SEQUENCE>
ACCTATCCGG

>  <CAT>
yes

$$$$
>  <MONOMER_SEQUENCE>
CTCGCTCGTG

>  <CAT>
yes

$$$$
>  <MONOMER_SEQUENCE>
TTTTTCAACT

>  <CAT>
yes

$$$$
>  <MONOMER_SEQUENCE>
CTCTACAGGG

>  <CAT>
yes

$$$$
>  <MONOMER_SEQUENCE>
GCGGTTCCTC

>  <CAT>
yes

$$$$
>  <MONOMER_SEQUENCE>
TGCAATGGGG

>  <CAT>
yes

$$$$
>  <MONOMER_SEQUENCE>
ATGGTTTACG

>  <CAT>
yes

$$$$
>  <MONOMER_SEQUENCE>
TTCGTTTGCT

>  <CAT>
no

$$$$

###

Catalogue of sequences with associated switch fluorescence ratio
Tested on: ATP;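 further: ATP exposure 15 min at 22 °C before imaging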
MEASUREMENT_PROTOCOL: switch fluorescence ratio, 500 uM ATP over buffer (Cy3 cluster intensity, sum of 5 cycles each) (fold (ratio)); higher = stronger signal-on switching upon ATP binding; sequences stand for … in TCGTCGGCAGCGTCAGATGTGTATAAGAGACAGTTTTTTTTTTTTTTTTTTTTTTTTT…TC
STUDY_CONDITIONS: aptamer strand: ATP DNA aptamer (quencher-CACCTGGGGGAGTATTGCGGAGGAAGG + anchor), 100 nM annealed; ATP concentration: 500 uM
MEASURED_PARAMETER: switch fluorescence ratio

>  <MONOMER_SEQUENCE>
AATGAGTATA

>  <VALUE>
0.991

$$$$
>  <MONOMER_SEQUENCE>
TGCGGCGGGT

>  <VALUE>
1.04

$$$$
>  <MONOMER_SEQUENCE>
TAGTGTAGGA

>  <VALUE>
1

$$$$
>  <MONOMER_SEQUENCE>
GTTTAATTTA

>  <VALUE>
1.01

$$$$
>  <MONOMER_SEQUENCE>
GGTTGACGCA

>  <VALUE>
1.01

$$$$
>  <MONOMER_SEQUENCE>
GAGGTTATAG

>  <VALUE>
0.998

$$$$
>  <MONOMER_SEQUENCE>
GTTTGGGGGC

>  <VALUE>
1.03

$$$$

###

Tested on: ATP;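 further: ATP exposure 15 min at 22 °C before imaging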
MEASUREMENT_PROTOCOL: switch fluorescence ratio, 500 uM ATP over buffer (Cy3 cluster intensity, sum of 5 cycles each) (fold (ratio)); higher = stronger signal-on switching upon ATP binding; sequences stand for … in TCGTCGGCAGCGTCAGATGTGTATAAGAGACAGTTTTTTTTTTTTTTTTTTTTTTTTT…TC
STUDY_CONDITIONS: aptamer strand: ATP DNA aptamer (quencher-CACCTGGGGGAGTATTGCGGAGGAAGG + anchor), 100 nM annealed; ATP concentration: 500 uM
Examples of sequences with documented switch fluorescence ratio follow.

>  <MONOMER_SEQUENCE>
AAAGCATAAC

>  <switch fluorescence ratio>
1.91

$$$$
>  <MONOMER_SEQUENCE>
GCAAGAAAAA

>  <switch fluorescence ratio>
1.02

$$$$
>  <MONOMER_SEQUENCE>
GCATCGGGCC

>  <switch fluorescence ratio>
0.981

$$$$
>  <MONOMER_SEQUENCE>
CGTGGGGATG

>  <switch fluorescence ratio>
1

$$$$
>  <MONOMER_SEQUENCE>
GGCTTGAAGC

>  <switch fluorescence ratio>
0.986

$$$$
>  <MONOMER_SEQUENCE>
TTATCAGTGT

>  <switch fluorescence ratio>
0.972

$$$$
>  <MONOMER_SEQUENCE>
ATTGGGCAGT

>  <switch fluorescence ratio>
0.973

$$$$
>  <MONOMER_SEQUENCE>
TAAAGGCGTG

>  <switch fluorescence ratio>
0.96

$$$$
>  <MONOMER_SEQUENCE>
GGTATATGTC

>  <switch fluorescence ratio>
0.994

$$$$
>  <MONOMER_SEQUENCE>
AGGGAAATAG

>  <switch fluorescence ratio>
1.02

$$$$
>  <MONOMER_SEQUENCE>
GTTGGCGGGG

>  <switch fluorescence ratio>
0.976

$$$$
>  <MONOMER_SEQUENCE>
ATTGCATTCA

>  <switch fluorescence ratio>
0.995

$$$$
>  <MONOMER_SEQUENCE>
CTCTTGAATA

>  <switch fluorescence ratio>
0.996

$$$$
>  <MONOMER_SEQUENCE>
ATGTTGTGGT

>  <switch fluorescence ratio>
0.987

$$$$
>  <MONOMER_SEQUENCE>
ATAAAGCTCT

>  <switch fluorescence ratio>
1.01

$$$$
>  <MONOMER_SEQUENCE>
CTGTGGCTCG

>  <switch fluorescence ratio>
0.999

$$$$
>  <MONOMER_SEQUENCE>
TGCGGGAAGT

>  <switch fluorescence ratio>
1

$$$$
>  <MONOMER_SEQUENCE>
GGCCGGAGAC

>  <switch fluorescence ratio>
1.15

$$$$
>  <MONOMER_SEQUENCE>
TCCGGGGTGC

>  <switch fluorescence ratio>
2.36

$$$$
>  <MONOMER_SEQUENCE>
GTTGGGTAAA

>  <switch fluorescence ratio>
0.983

$$$$
>  <MONOMER_SEQUENCE>
TTGTTTAACG

>  <switch fluorescence ratio>
0.998

$$$$
>  <MONOMER_SEQUENCE>
GATCAGTGTT

>  <switch fluorescence ratio>
0.978

$$$$

###

System: ATP;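 further: ATP exposure 15 min at 22 °C before imaging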
MEASUREMENT_PROTOCOL: switch fluorescence ratio, 500 uM ATP over buffer (Cy3 cluster intensity, sum of 5 cycles each) (fold (ratio)); higher = stronger signal-on switching upon ATP binding; sequences stand for … in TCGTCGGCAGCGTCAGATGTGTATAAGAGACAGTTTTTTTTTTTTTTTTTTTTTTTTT…TC
STUDY_CONDITIONS: aptamer strand: ATP DNA aptamer (quencher-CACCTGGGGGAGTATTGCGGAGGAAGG + anchor), 100 nM annealed; ATP concentration: 500 uM

>  <MONOMER_SEQUENCE>
TCACTGTTTC

>  <switch fluorescence ratio>
1.01

$$$$
>  <MONOMER_SEQUENCE>
AGTGTTAGAC

>  <switch fluorescence ratio>
1.01

$$$$
>  <MONOMER_SEQUENCE>
AATGTGTTGT

>  <switch fluorescence ratio>
0.998

$$$$
>  <MONOMER_SEQUENCE>
TCATTGGTAA

>  <switch fluorescence ratio>
0.977

$$$$
>  <MONOMER_SEQUENCE>
ATGAGGAGGG

>  <switch fluorescence ratio>
1.02

$$$$
>  <MONOMER_SEQUENCE>
TCGGAGAAGG

>  <switch fluorescence ratio>
1.02

$$$$
>  <MONOMER_SEQUENCE>
GAAGTAGTTA

>  <switch fluorescence ratio>
1.01

$$$$
>  <MONOMER_SEQUENCE>
CGGGTCTTAG

>  <switch fluorescence ratio>
1.01

$$$$
>  <MONOMER_SEQUENCE>
ATTGGGAGAT

>  <switch fluorescence ratio>
1.02

$$$$

###

Below, each entry is listed with its recorded switch fluorescence ratio.
Test system: ATP;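 further: ATP exposure 15 min at 22 °C before imaging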
MEASUREMENT_PROTOCOL: switch fluorescence ratio, 500 uM ATP over buffer (Cy3 cluster intensity, sum of 5 cycles each) (fold (ratio)); higher = stronger signal-on switching upon ATP binding; sequences stand for … in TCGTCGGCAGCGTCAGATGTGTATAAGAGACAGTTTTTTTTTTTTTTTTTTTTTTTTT…TC
STUDY_CONDITIONS: aptamer strand: ATP DNA aptamer (quencher-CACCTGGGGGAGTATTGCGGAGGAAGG + anchor), 100 nM annealed; ATP concentration: 500 uM
MEASURED_PARAMETER: switch fluorescence ratio

>  <MONOMER_SEQUENCE>
TGGGGGTACT

>  <VALUE>
1.01

$$$$
>  <MONOMER_SEQUENCE>
AAATTCCGTG

>  <VALUE>
0.978

$$$$
>  <MONOMER_SEQUENCE>
CAGTCATGCC

>  <VALUE>
0.971

$$$$
>  <MONOMER_SEQUENCE>
GTTTATAATG

>  <VALUE>
0.986

$$$$
>  <MONOMER_SEQUENCE>
TTCTTGTCGG

>  <VALUE>
0.984

$$$$
>  <MONOMER_SEQUENCE>
GGGGTATGTG

>  <VALUE>
0.992

$$$$
>  <MONOMER_SEQUENCE>
TATTTGTGTG

>  <VALUE>
0.998

$$$$
